# studySystem: T1, Chryseobacterium sp-62563 deamidase polypeptide (second polypeptide, deamidase domain), wildtype (Chryseobacterium sp-62563)
# T1 sequence: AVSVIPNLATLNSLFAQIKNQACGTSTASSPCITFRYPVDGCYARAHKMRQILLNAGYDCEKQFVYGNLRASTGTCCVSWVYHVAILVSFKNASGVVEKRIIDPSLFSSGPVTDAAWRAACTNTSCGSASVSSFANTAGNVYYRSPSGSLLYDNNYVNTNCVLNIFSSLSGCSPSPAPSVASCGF
# methodNotes: cell-based or functional assay
measuredQuantity: Relative activity of maturated deamidase (% initial rate)

P. Chryseobacterium sp-62563 propeptide K96L (protein) NQDPNLVAKESNETAMKDFGKTVPVGIEKEDGKFKISFMVTAQPYEIKDSKENAAYISMIKTAVENETPIHVFLKANTNEIAKVDKATDDDIRYFLSVFTKEVKEENRK
Q. Chryseobacterium sp-62563 propeptide I92A (protein) NQDPNLVAKESNETAMKDFGKTVPVGIEKEDGKFKISFMVTAQPYEIKDSKENAAYISMIKTAVENETPIHVFLKANTNEIAKVDKATDDDARYFKSVFTKEVKEENRK
Between the two listed entries P and Q , which has its Relative activity of maturated deamidase (% initial rate) at the higher number? Identify your selection by its label.
P
